Test system: Human immunodeficiency virus 1
Experiment: Antiviral activity against HIV-1 JR-FL
Format: functional, organism-based
Conditions: Human immunodeficiency virus 1, JR-FL
Reported endpoint: EC50 (µM)

Compound	EC50 / µM
CNCc1ccc2c(c1)[C@@H](CC[C@@H](O)CO)[C@H](CNC(=N)N)[C@H]2NC(=O)C(=O)Nc1ccc(Cl)c(F)c1	22

1. CCOC(=O)N1CCC[C@H](C(=O)Nc2ccc(Cl)c(F)c2)C1
2. CCOC(=O)N1CCCC(C(=O)Nc2ccc(Cl)c(F)c2)C1 (racemic)
Query string: Kindly identify the item with the lower EC50 figure among these two: 1 and 2 Use the label to indicate which entry you chose.
Result string: 2
(2: 8.3 µM, 1: 18 µM)
